biological target: Kynurenine 3-monooxygenase (Rattus norvegicus); assay: Compound was evaluated for ex vivo inhibition of Kynurenine 3-hydroxylase activity in liver of rat after injecting perorally; type: tissue-based
reportedProperty: ED50 (µmol/kg)

Example entries and their recorded answers appear below.
- compound: "Nc1ccc(S(=O)(=O)Nc2nc(-c3cc(C(F)(F)F)ccc3F)cs2)cc1"
  quantityUnit: "µmol/kg"
  measValue: 4.6
- compound: "NC(CC(=O)c1ccc(Cl)c(Cl)c1)C(=O)O (stereo not given)"
  quantityUnit: "µmol/kg"
  measValue: 222
- compound: "Cc1ccc(S(=O)(=O)Nc2nc(-c3cccc([N+](=O)[O-])c3)cs2)cc1"
  quantityUnit: "µmol/kg"
  measValue: 33.4

A = COc1ccc(S(=O)(=O)Nc2nc(-c3cccc([N+](=O)[O-])c3)cs2)cc1
B = COc1ccc(S(=O)(=O)Nc2nc(-c3cc(C(F)(F)F)ccc3F)cs2)cc1OC
Task: Looking at recorded values for ED50, does A or B come in lower? Select an item and report its label.
Output: B
(B: 5.3 µmol/kg, A: 9 µmol/kg)
